# assay-text: Binding to fetal bovine serum (plasma protein binding), centrifugal filter device, HPLC
# Assay type: in vitro ADME
# condition-info: bovine, 5% w/v fetal bovine serum in phosphate buffered saline, 10 uM, 5% fetal bovine serum in PBS; read-out: % Bound Run 2 (converted)
experimental-readout: fraction unbound at 30 min, 10 µM

CCN(CC)Cc1cn(CC=C(C)C)c2ccc(-c3cccc(C)c3)cc12 [Compound J38G]
0.783
CCCCCCCCn1cc(CN(CC)CC)c2cc(-c3cccc(C)c3)ccc21 [Compound J17G]
0.353
CCCCCCCCn1cc(CC(N)=O)c2cc(-c3cccc(C)c3)ccc21 [cysmethynil, reference compound]
0.0943

---

# assay-text: Binding to fetal bovine serum (plasma protein binding), centrifugal filter device, HPLC
# Type: in vitro ADME
# condition-info: bovine, 5% w/v fetal bovine serum in phosphate buffered saline, 4 uM, 5% fetal bovine serum in PBS; read-out: % Bound Run 2 (converted)
Listed here are compounds together with their documented fraction unbound at 30 min, 4 µM.
experimental-readout: fraction unbound at 30 min, 4 µM

CCCCCCCCn1cc(CC(N)=O)c2cc(-c3cccc(C)c3)ccc21 [cysmethynil, reference compound]
0.124
CCN(CC)Cc1cn(CC=C(C)C)c2ccc(-c3cccc(C)c3)cc12 [Compound J38G]
0.676
CCCCCCCCn1cc(CN(CC)CC)c2cc(-c3cccc(C)c3)ccc21 [Compound J17G]
0.301

---

# assay-text: Binding to fetal bovine serum (plasma protein binding), centrifugal filter device, HPLC
# Format: in vitro ADME
# condition-info: bovine, 5% w/v fetal bovine serum in phosphate buffered saline, 25 uM, 5% fetal bovine serum in PBS; read-out: % Bound Average (converted)
experimental-readout: fraction unbound at 30 min, 25 µM

CCCCCCCCn1cc(CC(N)=O)c2cc(-c3cccc(C)c3)ccc21 [cysmethynil, reference compound]
0.122
CCCCCCCCn1cc(CN(CC)CC)c2cc(-c3cccc(C)c3)ccc21 [Compound J17G]
0.304
CCN(CC)Cc1cn(CC=C(C)C)c2ccc(-c3cccc(C)c3)cc12 [Compound J38G]
0.737

---

# assay-text: Binding to fetal bovine serum (plasma protein binding), centrifugal filter device, HPLC
# Assay type: in vitro ADME
# condition-info: bovine, 5% w/v fetal bovine serum in phosphate buffered saline, 1 uM, 5% fetal bovine serum in PBS; read-out: % Bound Run 3 (converted)
Listed here are compounds together with their documented fraction unbound at 30 min, 1 µM.
experimental-readout: fraction unbound at 30 min, 1 µM

CCCCCCCCn1cc(CC(N)=O)c2cc(-c3cccc(C)c3)ccc21 [cysmethynil, reference compound]
0.12
CCN(CC)Cc1cn(CC=C(C)C)c2ccc(-c3cccc(C)c3)cc12 [Compound J38G]
0.737
CCCCCCCCn1cc(CN(CC)CC)c2cc(-c3cccc(C)c3)ccc21 [Compound J17G]
0.151

---

Listed here are molecules together with their documented fraction unbound at 30 min, 4 µM.
# assay-text: Binding to fetal bovine serum (plasma protein binding), centrifugal filter device, HPLC
# Assay type: in vitro ADME
# condition-info: bovine, 5% w/v fetal bovine serum in phosphate buffered saline, 4 uM, 5% fetal bovine serum in PBS; read-out: % Bound Run 3 (converted)
experimental-readout: fraction unbound at 30 min, 4 µM

CCCCCCCCn1cc(CN(CC)CC)c2cc(-c3cccc(C)c3)ccc21 [Compound J17G]
0.243
CCCCCCCCn1cc(CC(N)=O)c2cc(-c3cccc(C)c3)ccc21 [cysmethynil, reference compound]
0.131
CCN(CC)Cc1cn(CC=C(C)C)c2ccc(-c3cccc(C)c3)cc12 [Compound J38G]
0.621
